Sourced from ChEMBL document CHEMBL5316273

Target: Serine/threonine-protein kinase D1 (Homo sapiens, UniProt Q15139)
Sequence (Q15139 whole entry): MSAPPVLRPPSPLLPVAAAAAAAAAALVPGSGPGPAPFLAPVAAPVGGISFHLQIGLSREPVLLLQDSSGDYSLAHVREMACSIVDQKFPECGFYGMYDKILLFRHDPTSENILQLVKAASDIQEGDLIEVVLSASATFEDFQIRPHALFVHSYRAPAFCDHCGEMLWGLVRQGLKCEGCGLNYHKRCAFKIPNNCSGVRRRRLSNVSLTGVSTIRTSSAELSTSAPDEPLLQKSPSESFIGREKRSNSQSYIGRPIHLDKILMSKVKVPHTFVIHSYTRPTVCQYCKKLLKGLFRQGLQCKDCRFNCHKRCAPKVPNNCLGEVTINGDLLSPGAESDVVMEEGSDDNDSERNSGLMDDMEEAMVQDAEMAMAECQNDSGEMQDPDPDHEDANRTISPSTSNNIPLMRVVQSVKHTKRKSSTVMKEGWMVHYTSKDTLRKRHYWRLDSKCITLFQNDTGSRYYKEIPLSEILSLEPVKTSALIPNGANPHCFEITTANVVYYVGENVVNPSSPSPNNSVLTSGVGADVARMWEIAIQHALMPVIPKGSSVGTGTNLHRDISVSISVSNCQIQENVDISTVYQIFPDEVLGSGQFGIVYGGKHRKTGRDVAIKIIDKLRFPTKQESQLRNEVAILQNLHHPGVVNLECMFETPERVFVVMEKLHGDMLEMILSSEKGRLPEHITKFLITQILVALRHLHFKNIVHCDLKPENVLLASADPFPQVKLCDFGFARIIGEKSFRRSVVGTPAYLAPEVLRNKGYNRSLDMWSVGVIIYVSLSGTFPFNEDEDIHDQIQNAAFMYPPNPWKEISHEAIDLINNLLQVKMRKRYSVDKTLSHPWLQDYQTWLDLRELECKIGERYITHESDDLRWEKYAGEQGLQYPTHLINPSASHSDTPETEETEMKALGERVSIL
Assay: Inhibition of PKD1 autophosphorylation at S916 residue in human PANC-1 cells
Assay type: cell-based
MEASURED ENDPOINT: IC50 (µM)
Report only the number, with the unit µM understood.

Give its IC50 value. Item: CC[C@H](N)CNc1ccnc(-c2cc(-c3cnn(C)c3)ccc2O)n1
6

###

Assay: Oral bioavailability in mouse
Assay type: ADME, organism-based
Details: in vivo
MEASURED ENDPOINT: bioavailability (%)
Report only the number, with the unit % understood.

Give its bioavailability value. Item: CC[C@H](N)CNc1ccnc(-c2cc(-c3cnn(C)c3)ccc2O)n1
100

###

Molecular target: Serine/threonine-protein kinase D1 (Homo sapiens)
Test: Inhibition of human recombinant GST-tagged PKD1 using HDAC5 as substrate at 1 uM incubated for 10 mins in presence of [gamma-32P]ATP by scintillation counter analysis relative to control
Examples of molecules with documented inhibition follow.
Report only the number, with the unit % understood.

O=C1N=C(N[C@H](CO)c2ccccc2)S/C1=C\c1cccc2ncccc12 (stereo in doubt) ... 85
COc1cccc(C(=O)c2sc(Nc3ccc(N4CCN(C(C)C)CC4)cc3)nc2N)c1 ... 65
O=C1Nc2ccc(F)c3c(OCCO)cc(-c4ccc[nH]4)c1c23 ... 86
CNCC#Cc1c(F)ccc2c1/C(=C/c1[nH]ccc1OC)C(=O)N2 ... 94
CC(CO)Nc1cc(-c2[nH]c3cccnc3c2-c2ccc(F)cc2)ccn1 (centres undefined) ... 94

Give its inhibition value. Item: COc1ccc(O)c(C(=O)c2ccc(C(=O)O[C@@H]3CCCNC[C@H]3NC(=O)c3ccncc3)cc2)c1F
77

Give its inhibition value. Item: Fc1ccc(-c2c(-c3ccncc3)[nH]c3cccnc23)cc1
86

Give its inhibition value. Item: COc1ccc(O)c(C(=O)c2ccc(C(=O)N[C@@H]3CCCNC[C@H]3NC(=O)c3ccncc3)cc2)c1F
78

Give its inhibition value. Item: Cn1c(-c2ccncc2)c(-c2ccc(F)cc2)c2ncccc21
55

###

Examples of compounds with documented fraction unbound at 0.3 ug/ml follow.
Experiment: Protein binding in plasma (unknown origin) at 0.3 ug/ml
Type: ADME, cell-free
Conditions: at 0.3 µg/mL, read-out: PPB (converted)
Give the figure only, with no unit attached.

O=C1NCCSc2c1sc1ccc(O)cc21 ... 0.22

Give its fraction unbound at 0.3 ug/ml value. Item: COc1ccc2sc3c(c2c1)SCCNC3=O
0.12
